target: recombinant human Nav1.7 (Homo sapiens (Human), UniProt Q15858); assay: FRET-based membrane potential assay, recombinant human sodium channel Nav1.7; assay type: cell-based; details: HEK293 cells stably expressing recombinant human Nav1.7; veratridine + scorpion venom depolarization; read-out: FRET-Membrane Potential Nav1.7 IC50
Sequence (Q15858 whole entry): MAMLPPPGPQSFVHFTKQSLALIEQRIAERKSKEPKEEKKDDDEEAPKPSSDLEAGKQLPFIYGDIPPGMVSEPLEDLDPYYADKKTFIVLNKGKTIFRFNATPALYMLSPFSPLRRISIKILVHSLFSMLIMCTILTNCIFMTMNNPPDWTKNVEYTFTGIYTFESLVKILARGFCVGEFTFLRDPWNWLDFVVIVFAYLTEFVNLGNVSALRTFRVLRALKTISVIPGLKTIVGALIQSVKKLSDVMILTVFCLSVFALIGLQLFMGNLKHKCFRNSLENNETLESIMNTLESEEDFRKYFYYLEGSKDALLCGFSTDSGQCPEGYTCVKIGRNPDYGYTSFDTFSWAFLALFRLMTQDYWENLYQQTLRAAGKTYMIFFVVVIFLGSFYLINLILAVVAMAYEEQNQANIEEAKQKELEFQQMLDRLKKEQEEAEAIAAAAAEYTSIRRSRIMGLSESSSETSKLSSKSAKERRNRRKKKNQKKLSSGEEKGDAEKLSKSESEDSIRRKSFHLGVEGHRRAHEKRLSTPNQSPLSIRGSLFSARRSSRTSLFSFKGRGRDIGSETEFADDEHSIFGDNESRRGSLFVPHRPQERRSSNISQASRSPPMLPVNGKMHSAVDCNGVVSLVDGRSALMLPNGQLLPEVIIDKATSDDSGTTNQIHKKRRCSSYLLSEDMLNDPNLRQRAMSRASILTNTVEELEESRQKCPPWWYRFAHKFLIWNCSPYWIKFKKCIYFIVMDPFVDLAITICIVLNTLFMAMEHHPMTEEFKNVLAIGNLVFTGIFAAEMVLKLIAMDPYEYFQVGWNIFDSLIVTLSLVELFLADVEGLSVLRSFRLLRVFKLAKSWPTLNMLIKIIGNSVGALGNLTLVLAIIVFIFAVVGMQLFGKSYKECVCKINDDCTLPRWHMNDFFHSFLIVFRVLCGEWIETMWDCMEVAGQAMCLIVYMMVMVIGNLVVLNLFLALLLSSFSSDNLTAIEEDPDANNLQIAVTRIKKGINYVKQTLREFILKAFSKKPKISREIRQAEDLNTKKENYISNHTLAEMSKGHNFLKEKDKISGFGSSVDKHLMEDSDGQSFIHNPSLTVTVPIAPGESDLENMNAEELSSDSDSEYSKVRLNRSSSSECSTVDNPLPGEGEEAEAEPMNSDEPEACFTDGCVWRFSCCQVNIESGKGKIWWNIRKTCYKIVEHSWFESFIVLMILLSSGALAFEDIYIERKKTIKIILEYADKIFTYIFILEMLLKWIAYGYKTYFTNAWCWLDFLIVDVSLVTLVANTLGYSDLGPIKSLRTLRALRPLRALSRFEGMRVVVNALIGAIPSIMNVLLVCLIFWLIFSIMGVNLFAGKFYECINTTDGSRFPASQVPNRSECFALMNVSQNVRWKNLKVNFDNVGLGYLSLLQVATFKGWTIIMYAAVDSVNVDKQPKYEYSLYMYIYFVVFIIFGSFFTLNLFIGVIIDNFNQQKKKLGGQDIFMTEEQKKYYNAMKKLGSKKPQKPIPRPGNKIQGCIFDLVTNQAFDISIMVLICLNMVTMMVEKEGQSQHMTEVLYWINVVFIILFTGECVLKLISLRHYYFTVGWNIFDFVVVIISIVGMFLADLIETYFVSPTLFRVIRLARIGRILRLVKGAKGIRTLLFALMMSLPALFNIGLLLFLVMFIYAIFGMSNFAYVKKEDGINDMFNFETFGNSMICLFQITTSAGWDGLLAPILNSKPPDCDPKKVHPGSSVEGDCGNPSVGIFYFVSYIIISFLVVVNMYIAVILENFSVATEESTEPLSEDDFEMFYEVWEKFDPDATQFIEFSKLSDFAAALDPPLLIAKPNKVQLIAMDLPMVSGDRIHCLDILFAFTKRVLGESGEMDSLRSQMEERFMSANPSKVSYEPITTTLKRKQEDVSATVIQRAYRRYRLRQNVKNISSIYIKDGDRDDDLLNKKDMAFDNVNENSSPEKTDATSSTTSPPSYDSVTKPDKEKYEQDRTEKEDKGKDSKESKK
Class (required): determined from IC50; valid ranges are lo (below 1000 nM), mid (1000 nM to below 3000 nM), hi (3000 nM or more)

Known results for compounds:
{"compound": "N#Cc1ccc(Oc2ccc3nc(C(=O)N[C@@H]4CCOc5ccc(F)cc54)ccc3c2)cc1", "class label": "hi"}
{"compound": "O=C(c1ccc2cc(Oc3ccc(C(F)(F)F)cn3)ccc2n1)N1CC[C@@H](F)[C@H](O)C1 (relative stereo)", "class label": "hi"}
{"compound": "CN(CC(F)(F)F)C(=O)c1ccc2cc(Oc3ccc(C(F)(F)F)cn3)ccc2n1", "class label": "mid"}
{"compound": "O=C(c1ccc2cc(Oc3ccc(C(F)(F)F)cn3)ccc2n1)N1CCN(CC(F)(F)F)CC1", "class label": "hi"}
{"compound": "CC(C)NC(=O)CN(C)C(=O)c1ccc2cc(Oc3ccc(C(F)(F)F)cn3)ccc2n1", "class label": "hi"}

### Prompt Could you place O=C(NC1CC(N2CCOCC2)C1)c1ccc2cc(Oc3ccc(C(F)(F)F)cn3)ccc2n1 (stereo not shown) in its proper category? Many thanks.
### Response lo

### Prompt Hello team, could you let me know which band the following compound falls into: O=C(c1ccc2cc(Oc3ccc(C(F)(F)F)cn3)ccc2n1)N1CCN(c2ccccc2)CC1
### Response mid

### Prompt Determine which band this compound sits in: N#Cc1ccc(Oc2ccc3nc(C(=O)NCc4ccco4)ccc3c2)cc1
### Response hi
